- Measurement Target: T1, cynomolgus BLyS (full length, arginine to histidine at position 132) on CHO-K1 cells (cynomolgus, UniProt Q9Y275 1-285 (human entry))
- T1 construct: also called cyno BLyS; CHO-K1 cynoBLyS
- T1 chain: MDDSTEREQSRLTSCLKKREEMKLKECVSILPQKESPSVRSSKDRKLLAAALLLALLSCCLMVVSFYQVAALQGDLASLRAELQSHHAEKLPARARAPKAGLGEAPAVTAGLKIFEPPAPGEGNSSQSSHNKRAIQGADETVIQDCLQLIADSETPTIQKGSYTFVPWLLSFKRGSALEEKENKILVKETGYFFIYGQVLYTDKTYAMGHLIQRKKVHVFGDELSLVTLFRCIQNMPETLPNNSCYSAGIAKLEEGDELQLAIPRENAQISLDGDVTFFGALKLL
- Measurement Notes: flow cytometry, CHO-K1 cynoBLyS cells, antibody 0.0213 nM
binders and their reported MFI
Kindly provide the numeric value in MFI only, without the unit symbol.

Known MFI results, listed for orientation:
Binder	MFI [MFI]
2-1G11 (antibody, V domains shown, From a human naive scFv phage library; also called human BLyS antibody 2-1G11) VH: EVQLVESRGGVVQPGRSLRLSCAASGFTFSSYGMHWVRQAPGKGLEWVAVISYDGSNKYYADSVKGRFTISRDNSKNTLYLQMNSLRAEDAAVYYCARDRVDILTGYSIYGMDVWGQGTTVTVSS VL: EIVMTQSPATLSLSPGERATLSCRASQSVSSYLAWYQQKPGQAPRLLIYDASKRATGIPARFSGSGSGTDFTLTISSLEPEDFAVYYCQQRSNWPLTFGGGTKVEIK	332
L9G7 (antibody, V domains shown, From a human naive scFv phage library; also called human BLyS antibody L9G7) VH: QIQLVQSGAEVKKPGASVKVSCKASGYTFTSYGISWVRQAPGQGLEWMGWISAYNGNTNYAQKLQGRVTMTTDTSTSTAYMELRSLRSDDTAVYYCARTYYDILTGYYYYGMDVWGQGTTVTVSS VL: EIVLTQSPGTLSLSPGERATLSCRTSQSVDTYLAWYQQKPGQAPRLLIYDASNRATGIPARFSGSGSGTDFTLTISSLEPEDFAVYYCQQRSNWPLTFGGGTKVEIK	143

Here is another binder to look at.
Which MFI value is on record for 78C11D2D12 (antibody, V domains shown, Mouse hybridoma monoclonal antibody purified on Protein G) VH: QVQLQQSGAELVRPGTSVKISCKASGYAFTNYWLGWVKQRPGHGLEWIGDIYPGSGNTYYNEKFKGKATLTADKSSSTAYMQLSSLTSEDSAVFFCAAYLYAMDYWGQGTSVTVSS VL: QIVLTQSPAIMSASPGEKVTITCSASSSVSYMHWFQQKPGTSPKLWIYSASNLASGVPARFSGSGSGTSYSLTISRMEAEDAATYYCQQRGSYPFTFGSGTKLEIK ?
106
